protocolSummary: Stability in rat Hepatocyte assessed per million cells
Format: ADME, cell-based
testSettings: hepatocytes
attributeMeasured: Stability (µL/min)
Answer with a number only, understood to be in µL/min.

Some entries whose results are on file:
| smilesStructure | valueUnit | Stability |
| --- | --- | --- |
| O=c1cc2n(cc1O)CCN(Cc1c(F)cccc1Cl)C2 | µL/min | 11 |
| O=c1cc2n(cc1O)CCN(Cc1ccc(Cl)cc1Cl)C2 | µL/min | 17 |

Now let's try a different one.
Query: Let me know recorded Stability for `O=c1cc2n(cc1O)CCN(Cc1ccccc1Cl)C2` , thanks.
Reply: 11

---

Listed compounds paired with reported Fu
protocolSummary: Fraction unbound in rat plasma by equlibrium dialysis method
Assay type: ADME, cell-free
Answer with a number only, understood to be in %.

| smilesStructure | Fu (%) |
| --- | --- |
| O=c1cc2n(cc1O)CCN(Cc1ccccc1Cl)C2 | 27.5 |
| O=c1cc2n(cc1O)CCN(Cc1ccc(Cl)cc1Cl)C2 | 28 |
| Cc1cccc(C)c1CN1CCn2cc(O)c(=O)cc2C1 | 31.1 |

Now let's try a different one.
Query: Let me know recorded Fu for `O=c1cc2n(cc1O)CCN(Cc1ccccc1)C2` , thanks.
Reply: 61.4
